- TARGET_DESC: VGLUT1 (Rattus norvegicus, UniProt Q62634)
- Construct: gene Slc17a7; full-length rat VGLUT1 fused to EGFP (pEGFP-N1); co-expressed with Rab5 Q79L-mCherry in HEK293T; whole endosome recording of isolated enlarged endosomes
- EXPERIMENTAL_PROTOCOL: whole endosome patch clamp, block of Cl- and glutamate currents
- Type: biochemical
pIC50: −log10 of the molar value.
OBSERVATION_TYPE: pIC50

**Query** Given the entry "Cc1cc(-c2ccc(/N=N/c3ccc4c(S(=O)(=O)O)cc(S(=O)(=O)O)c(N)c4c3O)c(C)c2)ccc1/N=N/c1ccc2c(S(=O)(=O)O)cc(S(=O)(=O)O)c(N)c2c1O" , report its measured pIC50.
**Result** ~6.70
